# Experiment summary: growth inhibition of DIPG glioma cells, dose response, cell-based, SU-DIPG-XIII, MIPE4.0, CellTiter-Glo, qHTS (AID 1347061);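 further: cells exposed to compound for 48 hours before readout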
# Conditions used: SU-DIPG-XIII viability, CellTiter-Glo ATP luminescence
Records with an inconclusive call do not appear. Calls of active or inactive are those of the source. Cut-off not given; nearly all actives show AC50 up to about 37 µM.
Give your call using only these classes: Yes for active, No for inactive

Req: Recorded test call requested for "CC(C)(O)/C=C\C(=O)[C@](C)(O)[C@H]1[C@H](O)C[C@]2(C)[C@@H]3CC=C4[C@@H](C=C(O)C(=O)C4(C)C)[C@]3(C)C(=O)C[C@@]12C"
Resp: Yes

====

# Experiment summary: sensitizers of A549 cells to miR-34 induction, primary screen, imaging, A549 dox-inducible miR-34, nuclei and caspase counts (AID 1347080)
# Conditions used: A549 miR-34 inducible, Hoechst nuclei count, 48 h; measured here: total cells with miR-34 induction; stronger effect = lower value
Response field label takes Met when cell count is strictly below 8000 and Not met in all other cases.

Some solved entries appear below for comparison.
{"columns": ["Compound", "Label class"],
 "data": [
  ["CN1C(=O)COc2c(C(=O)NC3CN4CCC3CC4)cc(Cl)cc21 (stereo not drawn)", "Not met"],
  ["CC1=C(O)C(=O)C=C2C1=CC=C1[C@@]2(C)CC[C@@]2(C)[C@@H]3C[C@](C)(C(=O)O)CC[C@]3(C)CC[C@]12C", "Met"],
  ["COc1ccc(CCN)cc1OC", "Not met"]
]}

Req: For this compound, is cell count lower than 8000? "COP(=S)(OC)Oc1ccc(Sc2ccc(OP(=S)(OC)OC)cc2)cc1"
Resp: Not met

Req: For this compound, is cell count lower than 8000? CC(C)(C)[C@@]1(O)C[C@@H]2OC(=O)C[C@@]23C(=O)O[C@H]2OC(=O)C(O)C213 (stereo partly drawn)
Resp: Not met

Req: For this compound, is cell count lower than 8000? O=C(O)CCC(CP(=O)(O)O)C(=O)O (stereo not drawn)
Resp: Not met

Req: For this compound, is cell count lower than 8000? CCCCC1(C2CCCC2)Cc2cc(OCCCC(=O)O)c(Cl)c(Cl)c2C1=O (stereo not drawn)
Resp: Met

Req: For this compound, is cell count lower than 8000? "CCCCC/C=C\C/C=C\C/C=C\C/C=C\CCCC(=O)NC[C@@H](C)O"
Resp: Met

====

# Experiment summary: antimalarial activity against Dd2 strain (AID 2302);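 further: 0% = DMSO untreated growth and 100% = chloroquine plus artemisinin killed control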
# Conditions used: P. falciparum Dd2 in RBCs, LDH growth readout, 72 h; at 2 µM; stronger effect = higher value
Grouping key: growth inhibition. Bins: low: < 60%; mid: ≥ 60% and < 90%; high: ≥ 90%

Some solved entries appear below for comparison.
{"columns": ["Compound", "Label class"],
 "data": [
  ["CC[C@H]1CN2CC[C@H]1C[C@H]2[C@H](O)c1ccnc2ccc(OC)cc12", "mid"],
  ["O=C(NC1CCN(CC2(c3ccc(Cl)cc3)CCC2)CC1)c1cscn1", "high"],
  ["COCCNCc1cccc(-c2cccc(CN(C(=O)Nc3ccccc3)C3CCN(Cc4ccccc4)CC3)c2)c1", "mid"],
  ["O=C(NC1CCC(N2CCC3(CC2)C(=O)NCN3c2ccccc2)CC1)c1cc2ccccc2[nH]1 (stereo not given)", "low"],
  ["Cc1ccc(CC(C)NCC(O)c2cccc(Br)c2)cc1 (stereo not given)", "high"]
]}

Req: Assign a category based on measured growth inhibition for "CN1C(=O)[C@H](NC(=O)[C@@H](Cc2ccccc2)NC(=S)Nc2ccccc2)N=C(c2ccccc2)c2ccccc21" and give only the class name.
Resp: low

Req: Assign a category based on measured growth inhibition for COc1cccc(CC(C)NCC(O)c2cccc(Cl)c2)c1 (stereo not given) and give only the class name.
Resp: mid

Req: Assign a category based on measured growth inhibition for "CC[C@H]1CN2CC[C@H]1C[C@H]2[C@H](O)c1cc(-c2ccc(Cl)c(Cl)c2)nc2ccc(OC)cc12" and give only the class name.
Resp: high

====

# Test system: Aerobactin synthetase IucA (Klebsiella pneumoniae hvKP1)
# Experiment summary: Biochemical IucA enzyme inhibition primary screen of the Spectrum library (AID 1346200);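 further: 100% = wells without compound and 0% = wells lacking enzyme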
# Conditions used: malachite green pyrophosphate, A620, at 8 µM, stronger effect = lower value
Outcome measure: activity remaining (%)
Answers are plain numbers, in %.

{"columns": ["Molecule", "Units", "Assay value"],
 "data": [
  ["Oc1c(Cl)cc(Cl)c(Cl)c1Cc1c(O)c(Cl)cc(Cl)c1Cl", "%", 118],
  ["C[C@@H](N)CO", "%", 106],
  ["CN(C)C(=S)SSC(=S)N(C)C", "%", 97.7]
]}

For the 8 molecules below, give their activity remaining values.
1. CNCC[C@@H](Oc1ccccc1)c1ccccc1
2. O=C(O)C1CC(C2CCCCN2)CN2CCCCC12 (stereo not given)
3. CC(=O)Oc1c(-c2ccccc2)oc2c(CC=C(C)C)c3c(c(OC(C)=O)c2c1=O)C=CC(C)(C)O3
4. Cc1cccc(C)c1NC(=O)C1CCCCN1C (stereo not given)
5. COc1cc(OC)c(OC)cc1C=O
6. COc1cc([C@@H]2c3cc4c(cc3[C@H](OC(C)=O)[C@H]3COC(=O)[C@@H]23)OCO4)cc(OC)c1OC
7. O=C(/C=C/c1ccccc1)c1ccc(O[C@@H]2O[C@H](CO)[C@@H](O)[C@H](O)[C@H]2O)cc1O
8. O=C(O)c1cc(=O)c(O)c2c(O)c(O)ccc2c1

Resp:
1: 111; 2: 115; 3: 98.4; 4: 123; 5: 109; 6: 96.2; 7: 116; 8: 90.4

For the 4 molecules below, give their activity remaining values.
1. CN1C(=O)CC[C@H]1c1cccnc1
2. C/C=C/c1ccc(OC)cc1
3. CC12CCC3C(CC3(C)C)C(C)(CCC1=O)O2 (stereo not given)
4. O=C(O)CCC1NCC2CC1CN1CCCCC21 (stereo not given)

Resp:
[101, 98.6, 119, 120]

====

# Experiment summary: rescue of polyQ-huntingtin neuronal dysfunction in worms, whole organism, C. elegans mechanosensory neurons, N-terminal huntingtin (AID 1599)
# Conditions used: touch response, stronger effect = higher value
Entries with a potency or affinity are not part of this list.
Outcome measure: rescue above control
Give bare numbers.

For the 6 molecules below, give their rescue above control values.
1. O=C(O)c1ccccc1-c1c2cc(Br)c(=O)cc-2oc2[c]([Hg])c(O)c(Br)cc12
2. NCCc1cc(O)c(O)cc1O
3. C[C@@H]1O[C@@H](O[C@H]2C[C@@H](O)[C@]3(CO)C4C(CC[C@]3(O)C2)[C@@]2(O)CC[C@H](C3=CC(=O)OC3)[C@@]2(C)C[C@H]4O)[C@H](O)[C@H](O)[C@H]1O (stereo partly specified)
4. CCCC(C)C1(CC)C(=O)N=C(S)NC1=O (stereo unspecified)
5. CC[C@@H]1C(=O)OC[C@@H]1Cc1cncn1C
6. c1ccc2c(c1)sc1ccccc12

Resp:
0
-4.94
3.58
-8.64
1.26
18.8

For the 3 molecules below, give their rescue above control values.
1. C[C@H](N)[C@H](O)c1ccc(O)c(O)c1
2. CN1C(=O)C(O)N=C(c2ccccc2)c2cc(Cl)ccc21 (stereo unspecified)
3. O=C1CC[C@@]2(O)[C@H]3Cc4ccc(O)c5c4C2(CCN3CC2CC2)[C@H]1O5

Resp:
4.59
0.82
-6.2

For the 3 molecules below, give their rescue above control values.
1. C=C1C2CC[C@H]3[C@]4(C)C[C@H](OC5OC(CO)C(OS(=O)(=O)O)C(OS(=O)(=O)O)C5OC(=O)CC(C)C)C[C@@H](C(=O)O)[C@H]4CC[C@]3(C2)[C@H]1O (stereo partly specified)
2. CC(N)Cc1ccccc1 (stereo unspecified)
3. C[C@]12CCC3C(CC[C@@H]4C[C@H](O)CC[C@]34C)C1CCC2=O (stereo partly specified)

Resp:
1: -8.48; 2: -1.93; 3: -3.82

====

Would you kindly list insulin secretion stimulation for each of these compounds?
# Experiment summary: stimulators of insulin release from INS-1E, primary screen, cell-based, 5 mM glucose, NPC library (AID 1117329)
# Conditions used: rat INS-1E insulin secretion, at 10 µM, stronger effect = higher value
One number for each entry, in %.

Here's what some known entries look like.
{"columns": ["Compound", "Outcome measure", "Units", "Assay value"],
 "data": [
  ["CN1C(=O)COc2c(C(=O)NC3CN4CCC3CC4)cc(Cl)cc21 (centres undefined)", "insulin secretion stimulation", "%", 1.3],
  ["Oc1cc(Cl)ccc1Oc1ccc(Cl)cc1Cl", "insulin secretion stimulation", "%", 1.4],
  ["Cc1ccc(N=CN(C)C=Nc2ccc(C)cc2C)c(C)c1", "insulin secretion stimulation", "%", 1.3],
  ["O=[N+]([O-])c1cc(I)c(O)c(I)c1", "insulin secretion stimulation", "%", 5.5],
  ["Cc1cccc(C)c1NC(=O)CN1CCCC1=O", "insulin secretion stimulation", "%", 1.6]
]}

For the 2 compounds below, give their insulin secretion stimulation values.
1. CCCCCCCCCCCCNCCNCCNCC(=O)O
2. CC(C)[N+](C)(CCC(C(N)=O)(c1ccccc1)c1ccccc1)C(C)C

Resp:
1. -0.3
2. -0.4
